- Tested on: OVCAR-4
- experiment_notes: NCI tumour cell line growth inhibition, 48 h
Active and inactive are the calls of the source. Rule as the data show it: active = GI50 up to about 1.1 µM and inactive = higher.
Labels: 1.0 for active, 0.0 for inactive

Cc1ccc(-c2nc3c(C(=O)NCCN(C)C)cccc3[nH]2)cc1    0.0
CC(=O)OC1O[C@@H](C(C)(C)O)CC[C@@H]1[C@H]1CC[C@@]2(C)C3=C(CC[C@]12C)[C@@]1(C)C[C@@H](OC(=O)CC(C)(O)CC(=O)O)[C@H](OC(C)=O)C(C)(C)C1CC3 (some centres not stated)    0.0
C/C(=C1/N=C(c2cc([N+](=O)[O-])ccc2Cl)N(C2=CC=C(Cl)CC2)C1=O)c1cc2ccccc2oc1=O    0.0
COC(=O)c1n[nH]c(C)c1/N=N/N(C)CCC#N    0.0
CC/C=C/c1cc2c(c3[nH]ccc13)[C@@H](C)CC2C.CC/C=C/c1cc2cc[nH]c2c2c1C(C)C[C@@H]2C.CCc1cc2c(c3[nH]ccc13)[C@@H](C)CC2C (some centres not stated)    0.0
N#Cc1cc2c(cc1Cl)Sc1nnc(Nc3ccccc3)n1S2(=O)=O    0.0
Cc1cc(S(=O)(=O)Nc2nc3ccsc3c(=O)n2N)c(S)cc1Cl    0.0
CC1(C)CCC(C)(C)c2cc(NC(=O)c3ccc(C(=O)O)cc3)ccc21    0.0
O=C1CC(c2ccccc2)NCN1 (configuration not stated)    0.0
COc1cc2c(c(OC)c1OC)-c1ccc(SC)c(=O)cc1C(CC(=O)Oc1ccc(F)cc1)C2 (configuration not stated)    1.0
CC(=O)OCC1OC(n2c(C)c(C)c(C)c(C#N)c2=S)C(OC(C)=O)C(OC(C)=O)C1OC(C)=O (configuration not stated)    0.0
Nc1cc2c(cc1[N+](=O)[O-])[nH]c1c(-c3ccccc3)nccc12    0.0
COC(=O)CN(CC(=O)NCCCBr)C1CCCCC1N(CC(=O)OC)CC(=O)OC (configuration not stated)    0.0
O=C(O)CCCc1ccc2c(c1)C(C(=O)O)CC2 (configuration not stated)    0.0
COC1/C=C/C(C)C(C(C)C(OC)C(C)CCC(=O)C(C)C(C/C=C/N(C)C=O)OC)OC(=O)/C=C/C=C(\C)CC(OC)C(OC)C2=CC(=O)O[C@@H](C(C)C(OC)CC(OC)/C=C/C(C)C(O)C1)[C@H]2O (some centres not stated)    1.0
O=C(Nc1c(Cl)cc([N+](=O)[O-])cc1Cl)C(=O)C1C(=O)NC(=S)NC1=O    0.0
COc1c(C)c(C/C=C(\C)CCCCO[Si](c2ccccc2)(c2ccccc2)C(C)(C)C)c(OC)c(OC)c1OC    0.0

* * *

- Tested on: MDA-MB-435
- experiment_notes: NCI tumour cell line growth inhibition, 48 h
Active and inactive are the calls of the source. No stated cut-off is given here; in the data, active = GI50 up to about 1.1 µM and inactive = higher.
Labels: Yes = active, No = inactive

COc1ccc2c(c1)CCc1c(-c3noc4c3CCc3cc(OC)ccc3-4)noc1-2    No
CCOC(=O)Cn1c2ccc(Br)cc2c2nc3ccccc3nc21    No
O=C(CCc1cc(O)cc(O)c1)NCCc1cc(O)cc(O)c1    No
CC(=O)OC1O[C@@H](C(C)(C)O)CC[C@@H]1[C@H]1CC[C@@]2(C)C3=C(CC[C@]12C)[C@@]1(C)C[C@@H](OC(=O)CC(C)(O)CC(=O)O)[C@H](OC(C)=O)C(C)(C)C1CC3 (some centres undefined)    No
CC1(C)[C@@H]2C[C@H]1C(Cc1cccc(C[C@H]3c4cc(-c5ccccn5)ncc4[C@H]4C[C@@H]3C4(C)C)c1)c1cc(-c3ccccn3)ncc12 (some centres undefined)    Yes
OC(C1CCC=NN1C(O)(C(F)(F)F)C(F)(F)F)(C(F)(F)F)C(F)(F)F (centres undefined)    No
COC(=O)C1=C(O)C(C(=O)OC)[C@]2(O)[C@H](C(=O)OC)[C@H]1C[C@@H](c1ccc(Cl)cc1Cl)[C@H]2C(=O)OC (some centres undefined)    No
Cc1ccc(-c2cc(-c3c(C)nn(C)c(=O)c3N)n[nH]2)cc1    No
CN(C)C(=O)c1nnsc1NN=O    No
CC(=O)OC1COC(Nc2nc(N)n(C)c(=O)c2N=O)C(OC(C)=O)C1OC(C)=O (centres undefined)    No
CC1(C)N=C(/C(Cl)=[N+](/[O-])C(=O)c2ccc(F)cc2)C(C)(C)N1O    No
CC(=O)CCC[C@H](C)[C@@H](O)[C@@H]1O[C@H]([C@@]2(C)CCC(=O)O2)C[C@H]1C(=O)O    No
O=C1CSSCC(=O)Nc2ccccc2N1    No
COc1ccc2c(CC(=O)O)cc(=O)oc2c1    No
C=CCNc1ccc(C)cc1    No
O=C(Nc1ccccc1)c1cc(S(=O)(=O)Nc2nc3cccnc3[nH]2)c(SSc2cc(Cl)c(C(=O)Nc3ccccc3)cc2S(=O)(=O)Nc2nc3cccnc3[nH]2)cc1Cl    No
CCNC(=O)Cc1nc2c(N)ncnc2n1C1OC(CO)C(O)C1O (centres undefined)    No
O=C(CCN1CC2CCC(CC2)C1)c1cccs1    No
Cn1c(=O)c2c(nc3n(CCCCl)c(=O)ccn23)n(C)c1=O    No

* * *

Some molecules, each annotated with its measured GI50.
- Tested on: 786-0
- experiment_notes: NCI tumour cell line growth inhibition, 48 h
Calls of active or inactive are those of the source. Rule as the data show it: active = GI50 up to about 1.1 µM and inactive = higher.
outcome_measure: GI50

O=C(Nc1nc(C23CC4CC(CC(C4)C2)C3)cs1)c1cc2ccc(O)cc2oc1=O    11.6 µM (inactive)
C=CCC1(O)CC(n2cc(C)c(=O)[nH]c2=O)OC1CO[Si](C)(C)C(C)(C)C (stereo not given)    44.1 µM (inactive)
NP(=O)(OCC1=CC(=O)c2ccccc2C1=O)N(CCBr)CCBr (stereo not given)    5.82 µM (inactive)
Cc1ccc(NC(=O)C2C(=O)N(c3ccc(C)c(C)c3)C(=O)C2N=N)cc1C (stereo not given)    > 100 µM (inactive)
CCOC(=O)C12CC1(C(=O)OCC)C1CCC2C1 (stereo not given)    > 100 µM (inactive)

* * *

- System: M14
- experiment_notes: NCI tumour cell line growth inhibition, 48 h
Active and inactive are the calls of the source. No stated cut-off is given here; in the data, active = GI50 up to about 1.1 µM and inactive = higher.
Labels: active, inactive

O=C(N/C=C1\C(=O)Oc2ccccc2C1=O)Oc1ccccc1    inactive
COc1nc2[nH]ccc2c(=O)n1C    inactive
O=C(CO)C1CC2C=CC1C2 (centres undefined)    inactive
COc1ccc(/C(=N\NC(=O)NN)C(c2ccc(OC)cc2)C2(O)C(=O)Nc3c(Cl)cc(Cl)cc32)cc1 (centres undefined)    inactive
CCOC(=O)C1(C(=O)OCC)COS(=O)OC1    inactive
COc1ccccc1NC1Oc2cc3c(cc2C(c2cc(OC)c(OC)c(OC)c2)C1C)OCO3 (centres undefined)    inactive
Cc1ccc(C)c(C(=N)c2ccccc2Cc2ccccc2)c1    inactive
CC(O)(C#N)CC(O)(C(F)(F)Cl)C(F)(F)Cl (centres undefined)    inactive
CCN(CC)C(=O)C/C(C)=N/NC(=O)c1ccncc1    inactive
COc1ccc2c(c1)[nH]c1c(/C=C/c3ccccc3)nccc12    inactive
CCNCCC1(CC)C(=O)NC(=O)NC1=O    inactive
OCCCCCNc1c2ccccc2nc2ccccc12    inactive
OC1CCCC1C(O)(C(F)(F)F)C(F)(F)F (centres undefined)    inactive
CC(=O)OC1COC(Nc2nc(N)n(C)c(=O)c2N=O)C(OC(C)=O)C1OC(C)=O (centres undefined)    inactive
O=C1CSC(c2cccc(Oc3ccccc3)c2)N1c1ccc(Cl)cc1 (centres undefined)    inactive
O=S1(=O)N=C(SCc2ccccc2)N(c2ccccc2)c2ccncc21    inactive
Cc1ccc(-n2cc(-c3ccc(Cl)cc3)c3c(N/N=C4\SCC(=O)N4C)ncnc32)cc1    inactive
Cc1cccc(/N=C2\NC(=O)C(CC(=O)Nc3ccc(C)cc3C)S2)c1 (centres undefined)    inactive
C=CCN1C[C@H](C)N([C@H](c2ccc(C(=O)NC(CC)CC)cc2)c2cccc(OC)c2)C[C@H]1C    inactive
O=c1[nH]c(=O)n(C2OC(CO)C(O)C2O)cc1/N=N/NCc1ccccc1 (centres undefined)    inactive
CN(C)CCN(c1ccccn1)c1ccccn1    inactive
Cc1cccc2c1Oc1cc(Cl)ccc1C2NC(=O)CCN1CCOCC1 (centres undefined)    inactive
CCOC(OCC)(OCC)C(Br)CC (centres undefined)    inactive
Cc1cc(O)nc(NN2C(Cl)C(=O)C2c2cccc(O)c2)n1 (centres undefined)    inactive
O=C(O)c1ccccc1C(=O)Nn1cnnc1    inactive
COc1c(C)c(C/C=C(\C)CCCCO[Si](c2ccccc2)(c2ccccc2)C(C)(C)C)c(OC)c(OC)c1OC    inactive
[N-]=[N+]=Nc1ccc(CNc2cc(=O)[nH]c(=O)[nH]2)cc1    inactive
CC12CCC(Br)C(C)(C)C1CC=C1C(=O)OCC1O2 (centres undefined)    inactive
N=C(N)N/N=C(\c1ccc(Cl)cc1)C1CC1    inactive
CO/C1=C\C(C)=C\C(C)C(O)C(C)C/C(C)=C/C=C/C(OC)C(C(C)C(O)C(C)C2(O)CC(O)C(C)C(C(C)C)O2)OC1=O (centres undefined)    active
NC(CCCCP(=O)(O)O)C(=O)O (centres undefined)    inactive
O=C(CSc1nnc[nH]1)C[P+](c1ccccc1)(c1ccccc1)c1ccccc1    inactive
CC1(C)CCC(C)(C)c2cc(NC(=O)c3ccc(C(=O)O)cc3)ccc21    inactive
COC(=O)C1=C(O)C(C(=O)OC)[C@]2(O)[C@H](C(=O)OC)[C@H]1C[C@@H](c1ccc(Cl)cc1Cl)[C@H]2C(=O)OC (some centres undefined)    inactive
CC(ON(C(c1ccccc1)C(C)C)C(C)(C)C)c1ccccc1 (centres undefined)    inactive
O=C1NC(N2CCOCC2)=N/C1=C\c1ccccc1    inactive
Cc1ccc(C2=Nc3c(N)nc(N)nc3NC(c3ccccc3)C2)cc1 (centres undefined)    inactive
N=C(N)NC(=N)Nc1ccccc1.Sc1nc2ccccc2s1    inactive
CCCCOC(=O)NC(=O)c1cn(CCCOC(=O)CCCCCCCCC(=O)OCCCn2cc(C(=O)NC(=O)OCCCC)c(=O)n(C)c2=O)c(=O)n(C)c1=O    inactive
O=NN(CCCl)C(=O)NC1CCC(CC2CCC(NC(=O)N(CCCl)N=O)CC2)CC1 (centres undefined)    inactive
CCCCCCCCCCCCCCCCC1=CC(=O)C=C(OC)C1=O    inactive
N#Cc1ccccc1NC(=O)C(O)C(O)C(O)C(O)C=O (centres undefined)    inactive
NC(CO)c1ccccc1 (centres undefined)    inactive
CCN(CC)c1nc(N(C)C)c2ccc(OC)cc2n1    inactive

Numbers sourced from ChEMBL document CHEMBL1201862.
